Molecular target: integrin α4β1 (RAMOS human cells adhering to VCAM-1) (Homo sapiens, UniProt P05556+P13612)
Construct: Ramos cells, which express integrin α4β1; host or cells: RAMOS
Sequence (P13612 34-1032): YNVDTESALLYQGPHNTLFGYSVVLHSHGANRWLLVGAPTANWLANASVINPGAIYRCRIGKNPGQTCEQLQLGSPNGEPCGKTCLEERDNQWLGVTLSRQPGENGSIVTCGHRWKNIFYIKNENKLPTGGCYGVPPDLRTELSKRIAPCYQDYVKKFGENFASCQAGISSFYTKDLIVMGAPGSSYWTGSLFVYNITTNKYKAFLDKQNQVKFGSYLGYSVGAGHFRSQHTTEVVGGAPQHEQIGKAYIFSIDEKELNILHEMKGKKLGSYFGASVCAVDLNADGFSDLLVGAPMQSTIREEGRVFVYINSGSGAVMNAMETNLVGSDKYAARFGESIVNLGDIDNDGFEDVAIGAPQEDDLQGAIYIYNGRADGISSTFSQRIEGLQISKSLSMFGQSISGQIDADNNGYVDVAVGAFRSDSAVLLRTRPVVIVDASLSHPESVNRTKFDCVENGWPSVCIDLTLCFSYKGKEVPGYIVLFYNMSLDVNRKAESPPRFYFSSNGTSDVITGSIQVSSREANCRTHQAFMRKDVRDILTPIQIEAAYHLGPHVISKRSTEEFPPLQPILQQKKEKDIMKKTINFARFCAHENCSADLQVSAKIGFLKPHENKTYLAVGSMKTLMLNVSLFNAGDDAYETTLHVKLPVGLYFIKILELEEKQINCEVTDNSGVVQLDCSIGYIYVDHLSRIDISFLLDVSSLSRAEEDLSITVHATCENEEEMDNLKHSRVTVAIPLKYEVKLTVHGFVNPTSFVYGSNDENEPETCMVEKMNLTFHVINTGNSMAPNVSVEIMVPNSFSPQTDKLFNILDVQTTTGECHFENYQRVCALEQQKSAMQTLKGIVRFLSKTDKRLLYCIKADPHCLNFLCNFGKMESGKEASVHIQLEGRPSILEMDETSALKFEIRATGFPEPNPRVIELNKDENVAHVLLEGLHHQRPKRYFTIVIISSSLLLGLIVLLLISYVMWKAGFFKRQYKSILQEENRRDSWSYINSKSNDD
Sequence (P05556 21-798): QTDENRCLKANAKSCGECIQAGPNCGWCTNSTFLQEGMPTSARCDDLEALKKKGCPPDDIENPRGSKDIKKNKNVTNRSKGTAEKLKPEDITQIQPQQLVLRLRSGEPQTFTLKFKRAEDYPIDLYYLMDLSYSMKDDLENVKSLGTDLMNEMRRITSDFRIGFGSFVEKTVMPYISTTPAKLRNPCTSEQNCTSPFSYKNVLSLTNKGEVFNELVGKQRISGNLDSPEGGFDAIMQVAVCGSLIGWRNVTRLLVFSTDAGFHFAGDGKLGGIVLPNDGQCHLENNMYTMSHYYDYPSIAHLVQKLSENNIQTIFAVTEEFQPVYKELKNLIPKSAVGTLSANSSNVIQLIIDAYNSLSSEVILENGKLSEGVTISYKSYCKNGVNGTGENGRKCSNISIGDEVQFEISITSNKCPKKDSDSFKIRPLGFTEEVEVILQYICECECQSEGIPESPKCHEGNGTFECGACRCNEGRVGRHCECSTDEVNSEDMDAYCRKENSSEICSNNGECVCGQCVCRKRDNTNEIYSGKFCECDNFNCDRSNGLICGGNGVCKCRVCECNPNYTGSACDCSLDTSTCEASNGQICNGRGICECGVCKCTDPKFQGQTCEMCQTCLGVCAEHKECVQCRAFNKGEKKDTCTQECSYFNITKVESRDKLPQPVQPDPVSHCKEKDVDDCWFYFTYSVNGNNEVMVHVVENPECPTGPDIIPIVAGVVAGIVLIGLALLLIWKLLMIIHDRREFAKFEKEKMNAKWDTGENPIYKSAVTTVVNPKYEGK
Assay: Integrin α4β1-VCAM cell adhesion assay (RAMOS cells)
Format: cell-based
Details: Ramos cells adhering to VCAM; read-out: Ramos Adhesion α4β1/VCAM IC50
Consider the following compounds; for each one, report its IC50.
Report only the number, with the unit nM understood.

Determine its reported IC50: "CC(C)C[C@@H]1NC(=O)c2ccc(-c3ccc(N4CCN(CC(=O)N5CCN(c6ccc(-c7ccc8cc7CNC(=O)[C@@H]7CCCN7[C@H](C(=O)NC(C)(C)C)[C@H](C)NC(=O)[C@H]([C@@H](C)O)NC(=O)[C@H](CC(=O)O)NC(=O)[C@H](CC(C)C)NC8=O)cc6)CC5)CC4)cc3)c(c2)CNC(=O)[C@@H]2CCCN2[C@H](C(=O)NC(C)(C)C)[C@H](C)NC(=O)[C@H]([C@@H](C)O)NC(=O)[C@H](CC(=O)O)NC1=O"
940

Determine its reported IC50: "CC(C)C[C@@H]1NC(=O)C[C@H](CCCCN)N(C)C(=O)[C@H](CCCCNC(=O)CCCCCC(=O)NCCCC[C@@H]2NC(=O)[C@@H]3CCCN3[C@H](C(=O)NC(C)(C)C)[C@H](C)NC(=O)[C@H]([C@@H](C)O)NC(=O)[C@H](CC(=O)O)NC(=O)[C@H](CC(C)C)NC(=O)C[C@H](CCCCN)N(C)C2=O)NC(=O)[C@@H]2CCCN2[C@H](C(=O)NC(C)(C)C)[C@H](C)NC(=O)[C@H]([C@@H](C)O)NC(=O)[C@H](CC(=O)O)NC1=O"
7150

Determine its reported IC50: "CC(C)C[C@@H]1NC(=O)C[C@H](CCCCN)N(C)C(=O)[C@H](CCCCNC(=O)c2ccccc2-c2ccccc2C(=O)NCCCC[C@@H]2NC(=O)[C@@H]3CCCN3[C@H](C(=O)NC(C)(C)C)[C@H](C)NC(=O)[C@H]([C@@H](C)O)NC(=O)[C@H](CC(=O)O)NC(=O)[C@H](CC(C)C)NC(=O)C[C@H](CCCCN)N(C)C2=O)NC(=O)[C@@H]2CCCN2[C@H](C(=O)NC(C)(C)C)[C@H](C)NC(=O)[C@H]([C@@H](C)O)NC(=O)[C@H](CC(=O)O)NC1=O"
9510

Determine its reported IC50: "CC(C)C[C@@H]1NC(=O)c2ccc(-c3ccc(N4CCN(c5ncc([N+](=O)[O-])c(N6CCN(c7ccc(-c8ccc9cc8CNC(=O)[C@@H]8CCCN8[C@H](C(=O)NC(C)(C)C)[C@H](C)NC(=O)[C@H]([C@@H](C)O)NC(=O)[C@H](CC(=O)O)NC(=O)[C@H](CC(C)C)NC9=O)cc7)CC6)n5)CC4)cc3)c(c2)CNC(=O)[C@@H]2CCCN2[C@H](C(=O)NC(C)(C)C)[C@H](C)NC(=O)[C@H]([C@@H](C)O)NC(=O)[C@H](CC(=O)O)NC1=O"
677

Determine its reported IC50: "CC(C)C[C@@H]1NC(=O)c2ccc(-c3ccc(N4CCN(C(=O)CCCCCCCCCCC(=O)N5CCN(c6ccc(-c7ccc8cc7CNC(=O)[C@@H]7CCCN7[C@H](C(=O)NC(C)(C)C)[C@H](C)NC(=O)[C@H]([C@@H](C)O)NC(=O)[C@H](CC(=O)O)NC(=O)[C@H](CC(C)C)NC8=O)cc6)CC5)CC4)cc3)c(c2)CNC(=O)[C@@H]2CCCN2[C@H](C(=O)NC(C)(C)C)[C@H](C)NC(=O)[C@H]([C@@H](C)O)NC(=O)[C@H](CC(=O)O)NC1=O"
1840
